Origin of measurements: PubChem BioAssay (NCI)

Entries and their TGI values follow.
Test system: SNB-19 CNS
Experiment: NCI tumour cell line growth inhibition, 48 h

Answered examples (5):
Cc1cc(S(N)(=O)=O)c(S/C(CC(C)C)=N\Nc2ccc([N+](=O)[O-])cc2)cc1Cl; 27.3 µM
COC(=O)c1ccccc1CC1Cc2ccc3c(c2C1)CCC3 (stereo unspecified); > 100 µM
O=C(CCc1ccccc1)ON1C(=S)NC(c2ccccc2)(c2ccccc2)C1=S; > 100 µM
CC(=O)[CH-]C(=O)c1ccccc1.CC(=O)[CH-]C(=O)c1ccccc1.CC(C)CCCC(C)[C@H]1CCC2[C@@H]3CC=C4C[C@@H]([O-])CC[C@]4(C)C3CC[C@@]21C.CC[O-].[Ti+4] (stereo partly specified); > 100 µM
Cc1ccc(-n2c3c(c4c(CN(C)C)c(O)ccc42)CCc2ccccc2C3=O)cc1; > 100 µM

Here is the next item to consider.
Memo: `Cc1nc2ccc(S(=O)(=O)Nc3ccccc3)cc2c(=O)n1NC(=O)CNc1ccccc1` , reported TGI: > 100 µM
